Cited source: paper PMC7447632

Each entry below carries its reported pIC50.
Biological target: rat TRPM8 channel (Rattus norvegicus)
Sequence (Q8R455 whole entry): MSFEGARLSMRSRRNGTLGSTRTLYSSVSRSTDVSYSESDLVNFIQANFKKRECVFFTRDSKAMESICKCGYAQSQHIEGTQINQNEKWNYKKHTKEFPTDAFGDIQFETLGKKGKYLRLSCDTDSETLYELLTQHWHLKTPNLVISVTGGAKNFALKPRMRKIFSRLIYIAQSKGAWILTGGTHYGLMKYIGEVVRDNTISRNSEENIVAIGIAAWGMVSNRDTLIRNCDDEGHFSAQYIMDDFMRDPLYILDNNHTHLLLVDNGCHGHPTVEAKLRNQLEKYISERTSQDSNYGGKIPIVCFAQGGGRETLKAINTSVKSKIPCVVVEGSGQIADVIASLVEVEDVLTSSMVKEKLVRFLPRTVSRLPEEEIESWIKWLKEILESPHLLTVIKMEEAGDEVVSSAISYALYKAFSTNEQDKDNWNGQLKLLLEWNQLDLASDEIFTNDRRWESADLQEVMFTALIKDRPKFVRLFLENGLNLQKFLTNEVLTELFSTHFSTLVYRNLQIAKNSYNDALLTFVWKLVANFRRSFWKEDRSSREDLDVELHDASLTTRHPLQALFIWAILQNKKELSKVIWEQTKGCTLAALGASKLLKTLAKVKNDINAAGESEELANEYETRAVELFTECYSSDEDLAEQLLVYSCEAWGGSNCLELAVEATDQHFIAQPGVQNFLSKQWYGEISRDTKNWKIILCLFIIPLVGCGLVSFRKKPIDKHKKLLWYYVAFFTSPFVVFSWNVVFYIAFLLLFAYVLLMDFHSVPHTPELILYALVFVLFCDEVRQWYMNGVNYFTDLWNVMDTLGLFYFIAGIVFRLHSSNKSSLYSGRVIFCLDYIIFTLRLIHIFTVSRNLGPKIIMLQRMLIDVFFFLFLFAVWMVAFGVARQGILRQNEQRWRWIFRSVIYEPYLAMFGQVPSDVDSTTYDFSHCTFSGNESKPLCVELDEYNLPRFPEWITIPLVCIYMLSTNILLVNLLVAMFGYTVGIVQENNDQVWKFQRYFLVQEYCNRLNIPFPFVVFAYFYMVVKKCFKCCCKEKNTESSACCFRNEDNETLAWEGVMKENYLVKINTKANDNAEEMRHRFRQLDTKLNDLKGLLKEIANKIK
Experiment: Ca2+ microfluorometry, menthol-induced Ca2+ influx in HEK293 cells expressing rat TRPM8
Details: Ca2+ microfluorometry, 100 µM menthol; HEK-rTRPM8
Formally, pIC50 is defined as -log10 of the concentration c, with c in mol/L.

- molecule: "COC(=O)C(Cc1ccccc1)N1C[C@H](Cc2ccccc2)N(C(=O)OCc2ccccc2)CC1=O (stereo partly shown) [Compound 20ab]"
  experimental-system: "rat TRPM8 channel (Rattus norvegicus)"
  pIC50: 4.73

The value of pIC50 measured for the molecule C[C@@H]1C(=O)N(C[C@H](Cc2ccccc2)NC(=O)OCc2ccccc2)[C@]1(Cc1ccccc1)C(=O)OCc1ccccc1 [Compound 24a] turned out to be 5.62

The value of pIC50 measured for the molecule O=C(OCc1ccccc1)C(Cc1ccccc1)N1C[C@H](Cc2ccccc2)N(C(=O)OCc2ccccc2)CC1=O (stereo partly shown) [Compound 21ab] turned out to be 5.70

The value of pIC50 measured for the molecule C[C@@H]1C(=O)N(C[C@@H](Cc2ccccc2)NC(=O)OCc2ccccc2)[C@]1(Cc1ccccc1)C(=O)OCc1ccccc1 [Compound 29a] turned out to be 6.40

The value of pIC50 measured for the molecule CC1C(=O)N(C[C@H](Cc2ccccc2)NC(=O)OCc2ccccc2)[C@@]1(Cc1ccccc1)C(=O)OCc1ccccc1 (stereo partly shown) [Compound 25ab] turned out to be 5.41

The value of pIC50 measured for the molecule C[C@H]1C(=O)N(C(Cc2ccccc2)C(=O)OCc2ccccc2)C[C@H](Cc2ccccc2)N1C(=O)OCc1ccccc1 (stereo partly shown) [Compound 26ab] turned out to be 5.62

The value of pIC50 measured for the molecule CC1C(=O)N(C[C@@H](Cc2ccccc2)NC(=O)OCc2ccccc2)[C@@]1(Cc1ccccc1)C(=O)OCc1ccccc1 (stereo partly shown) [Compound 31ab] turned out to be 5.80

---

Molecular target: rTRPM8 (Rattus norvegicus, UniProt Q8R455)
Assay: Patch-clamp electrophysiology, whole cell, HEK293 cells expressing rTRPM8
Details: Patch-clamp, holding potential -60 mV, 100 µM menthol; read-out: IC50 TRPM8 current blockade
quantity: pIC50
Formally, pIC50 is defined as -log10 of the concentration c, with c in mol/L.

- compound: "C[C@@H]1C(=O)N(C[C@H](Cc2ccccc2)NC(=O)OCc2ccccc2)[C@]1(Cc1ccccc1)C(=O)OCc1ccccc1 [Compound 24a]"
  quantity: "pIC50"
  value-reported: 5.85

Then this compound:
The value of pIC50 measured for the compound C[C@@H]1C(=O)N(C[C@@H](Cc2ccccc2)NC(=O)OCc2ccccc2)[C@]1(Cc1ccccc1)C(=O)OCc1ccccc1 [Compound 29a] turned out to be 6.10

---

Target: hTRPV1 channels (Homo sapiens)
Construct: expressed in transfected cells; host or cells: HEK (stably transfected)
Sequence (Q8NER1 whole entry): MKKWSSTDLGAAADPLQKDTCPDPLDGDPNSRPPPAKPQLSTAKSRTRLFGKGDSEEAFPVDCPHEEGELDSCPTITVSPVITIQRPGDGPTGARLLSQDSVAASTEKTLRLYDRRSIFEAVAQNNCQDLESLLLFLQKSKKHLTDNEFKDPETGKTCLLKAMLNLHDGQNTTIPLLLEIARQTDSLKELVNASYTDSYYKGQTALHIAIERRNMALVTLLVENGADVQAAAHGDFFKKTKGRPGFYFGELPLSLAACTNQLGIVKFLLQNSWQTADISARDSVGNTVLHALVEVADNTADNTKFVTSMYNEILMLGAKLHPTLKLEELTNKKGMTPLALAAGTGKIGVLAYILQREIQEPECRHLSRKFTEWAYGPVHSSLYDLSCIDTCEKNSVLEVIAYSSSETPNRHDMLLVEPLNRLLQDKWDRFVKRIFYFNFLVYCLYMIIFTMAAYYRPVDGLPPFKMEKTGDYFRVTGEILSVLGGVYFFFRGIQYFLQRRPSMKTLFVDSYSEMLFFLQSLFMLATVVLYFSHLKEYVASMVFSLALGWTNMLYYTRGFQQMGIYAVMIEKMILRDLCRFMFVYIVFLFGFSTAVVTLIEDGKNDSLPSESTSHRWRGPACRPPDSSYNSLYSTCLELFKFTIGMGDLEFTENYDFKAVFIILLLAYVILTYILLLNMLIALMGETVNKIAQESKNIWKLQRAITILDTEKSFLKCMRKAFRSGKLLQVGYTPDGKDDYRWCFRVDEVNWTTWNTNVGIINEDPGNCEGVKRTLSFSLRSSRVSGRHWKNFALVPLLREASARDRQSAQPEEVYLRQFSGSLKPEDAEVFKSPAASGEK
Test: Ca2+ microfluorometry in HEK cells expressing hTRPV1 (capsaicin)
Assay type: cell-based
Details: 5 µM compound, 1 µM capsaicin
quantity: TRPV1 Blockade (%) 5 µM
# number only, unit % dropped from output

Here's what some known entries look like.
- compound: "O=C(OCc1ccccc1)C(Cc1ccccc1)N1C[C@H](Cc2ccccc2)N(C(=O)OCc2ccccc2)CC1=O (some centres unmarked) [Compound 13ab]"
  experimental-system: "hTRPV1 channels (Homo sapiens)"
  value-reported: 7.2
- compound: "O=C(N[C@H](Cc1ccccc1)CN1C(=O)CC1(Cc1ccccc1)C(=O)OCc1ccccc1)OCc1ccccc1 (some centres unmarked) [Compound 14ab]"
  experimental-system: "hTRPV1 channels (Homo sapiens)"
  value-reported: 4.1
- compound: "CC1C(=O)N(C[C@H](Cc2ccccc2)NC(=O)OCc2ccccc2)[C@@]1(Cc1ccccc1)C(=O)OCc1ccccc1 (some centres unmarked) [Compound 25ab]"
  experimental-system: "hTRPV1 channels (Homo sapiens)"
  value-reported: 3.4
- compound: "O=C(OCc1ccccc1)C(Cc1ccccc1)N1C[C@@H](Cc2ccccc2)N(C(=O)OCc2ccccc2)CC1=O (some centres unmarked) [Compound 15ab]"
  experimental-system: "hTRPV1 channels (Homo sapiens)"
  value-reported: 6.3
- compound: "C[C@@H]1C(=O)N(C[C@@H](Cc2ccccc2)NC(=O)OCc2ccccc2)[C@]1(Cc1ccccc1)C(=O)OCc1ccccc1 [Compound 29a]"
  experimental-system: "hTRPV1 channels (Homo sapiens)"
  value-reported: 8.2
- compound: "COC(=O)C(Cc1ccccc1)N1C[C@H](Cc2ccccc2)N(C(=O)OCc2ccccc2)CC1=O (some centres unmarked) [Compound 20ab]"
  experimental-system: "hTRPV1 channels (Homo sapiens)"
  value-reported: 12.2
- compound: "CC1C(=O)N(C[C@@H](Cc2ccccc2)NC(=O)OCc2ccccc2)[C@@]1(Cc1ccccc1)C(=O)OCc1ccccc1 (some centres unmarked) [Compound 31ab]"
  experimental-system: "hTRPV1 channels (Homo sapiens)"
  value-reported: 5.7
- compound: "C[C@H]1C(=O)N(C(Cc2ccccc2)C(=O)OCc2ccccc2)C[C@@H](Cc2ccccc2)N1C(=O)OCc1ccccc1 (some centres unmarked) [Compound 32ab]"
  experimental-system: "hTRPV1 channels (Homo sapiens)"
  value-reported: 4.1

The value of TRPV1 Blockade (%) 5 µM measured for the compound C[C@@H]1C(=O)N(C(Cc2ccccc2)C(=O)OCc2ccccc2)C[C@@H](Cc2ccccc2)N1C(=O)OCc1ccccc1 (some centres unmarked) [Compound 30ab] turned out to be 9.2

The value of TRPV1 Blockade (%) 5 µM measured for the compound C[C@@H]1C(=O)N(C[C@H](Cc2ccccc2)NC(=O)OCc2ccccc2)[C@]1(Cc1ccccc1)C(=O)OCc1ccccc1 [Compound 24a] turned out to be 9.7

The value of TRPV1 Blockade (%) 5 µM measured for the compound O=C(OCc1ccccc1)C(Cc1ccccc1)N1C[C@H](Cc2ccccc2)N(C(=O)OCc2ccccc2)CC1=O (some centres unmarked) [Compound 21ab] turned out to be 6.2

The value of TRPV1 Blockade (%) 5 µM measured for the compound O=C(N[C@@H](Cc1ccccc1)CN1C(=O)CC1(Cc1ccccc1)C(=O)OCc1ccccc1)OCc1ccccc1 (some centres unmarked) [Compound 12ab] turned out to be 9.2

The value of TRPV1 Blockade (%) 5 µM measured for the compound C[C@H]1C(=O)N(C(Cc2ccccc2)C(=O)OCc2ccccc2)C[C@H](Cc2ccccc2)N1C(=O)OCc1ccccc1 (some centres unmarked) [Compound 26ab] turned out to be 6.2

The value of TRPV1 Blockade (%) 5 µM measured for the compound C[C@@H]1C(=O)N(C[C@@H](Cc2ccccc2)NC(=O)OCc2ccccc2)[C@]1(C)C(=O)OCc1ccccc1 [Compound 39a] turned out to be 2.6
